# Study System: equine FcRn (large alpha subunit p51) / equine beta-2-microglobulin complex, biotinylated (equine) (UniProt P30441)
# Assay Protocol: SPR (Biacore), pH 6
Observed Property: Kd (nM)

Binder: equine IgG4 Y436F (antibody, part only; not given: variable domains, not shown: another chain or arm of the molecule) constant: ASTTAPKVFPLASHSAATSGSTVALGCLVSSYFPEPVTVSWNSGALTSGVHTFPSVLQSSGLYSLSSMVTVPASSLKSQTYICNVAHPASSTKVDKKIVIKECNGGCPAECLQVGPSVFIFPPKPKDVLMISRTPTVTCVVVDVGHDFPDVQFNWYVDGVETHTATTEPKQEQFNSTYRVVSVLPIQHKDWLSGKEFKCKVNNKALPAPVERTISKPTGQPREPQVYVLAPHRDELSKNKVSVTCLVKDFYPTDIDIEWKSNGQPEPETKYSTTPAQLDSDGSYFLYSKLTVETNRWQQGTTFTCAVMHEALHNHFTEKSVSKSPGK
Numeric Result: 12.6

Binder: equine IgG1 G426C (antibody, part only; not given: variable domains, not shown: another chain or arm of the molecule) constant: ASTTAPKVFALAPGCGTTSDSTVALGCLVSGYFPEPVKVSWNSGSLTSGVHTFPSVLQSSGFYSLSSMVTVPASTWTSETYICNVVHAASNFKVDKRIEPIPDNHQKVCDMSKCPKCPAPELLGGPSVFIFPPNPKDTLMITRTPEVTCVVVDVSQENPDVKFNWYMDGVEVRTATTRPKEEQFNSTYRVVSVLRIQHQDWLSGKEFKCKVNNQALPQPIERTITKTKGRSQEPQVYVLAPHPDELSKSKVSVTCLVKDFYPPEINIEWQSNGQPELETKYSTTQAQQDSDGSYFLYSKLSVDRNRWQQGTTFTCCVMHEALHNHYTQKNVSKNPGK
Numeric Result: 20.4
